Just for reference, ChEMBL document CHEMBL1201862 is where these values come from.

- Tested on: M14
- procedure.details: NCI tumour cell line growth inhibition, 48 h
Calls of active or inactive are those of the source. Cut-off read from the data, not from the text of the source: active = GI50 up to about 1.1 µM and inactive = higher.
property.label: GI50

compound	readout.value
O=P(O)(Cc1ccccc1)c1ccccc1-c1ccccc1	> 100 µM (inactive)
CSc1ccc(-c2cc(-c3nc4ccccc4[nH]3)no2)cc1	20.4 µM (inactive)
CCCCNC(=NC#N)NCCCC	> 100 µM (inactive)
O=C1/C(=C\c2ccccc2)c2ccccc2N1Cc1ccccc1	9.16 µM (inactive)
Cc1ccc(/C=C2\CN(C)CC3C2=NC(=S)NC3c2ccc(C)cc2)cc1 (stereo unspecified)	42.5 µM (inactive)
COC1OC(C)C(OC(=O)C(C)(C)C)C(OS(=O)(=O)c2ccc(C)cc2)C1OS(=O)(=O)c1ccc(C)cc1 (stereo unspecified)	> 100 µM (inactive)
CO[C@@H]1C[C@H]2[C@@H]3CC[C@H]([C@H](C)CO)[C@@]3(C)CC[C@@H]2[C@@]2(C)CC[C@H]3C[C@]312	32.4 µM (inactive)
OC(Cc1ccccc1)(Cc1ccccc1)c1ccccc1	17.7 µM (inactive)
CC(=O)Oc1cc(OC(C)=O)c2c(C)cc(=O)oc2c1	87.3 µM (inactive)
NC1N=Nc2ccccc21 (stereo unspecified)	> 100 µM (inactive)
SCCSCCCSCCS	74.6 µM (inactive)
O=[N+]([O-])c1ccc(-c2ccc(-c3csc(Nc4ccccn4)n3)o2)cc1	59.6 µM (inactive)
OCC1OC(NCCNCCNC2OC(CO)C(O)C(O)C2O)C(O)C(O)C1O (stereo unspecified)	> 100 µM (inactive)
Cc1cc(C)nc(Nc2nc3cc([N+](=O)[O-])ccc3[nH]2)n1	> 100 µM (inactive)
Cc1ccc(NC(=O)CC(=O)n2nc(C)c(/N=N/c3cccc(C)c3)c2C)cc1	> 100 µM (inactive)
CC(=O)N/N=C1\CC(C)(C)C2CCC1C2 (stereo unspecified)	> 100 µM (inactive)
COc1ccc2c3c([nH]c2c1)[C@H]1C[C@H]2[C@H](C[C@@H](O)[C@H](OC)[C@H]2C(=O)O)CN1CC3	> 100 µM (inactive)
CC(Oc1ccccc1)C(=O)NNC(=O)OC(C)(C)C (stereo unspecified)	> 100 µM (inactive)
O=C(/C=N/c1ccccc1[S-])c1ccco1.O=C(/C=N/c1ccccc1[S-])c1ccco1.[Zn+2]	6.53 µM (inactive)
Cc1cccc(-c2cc(=S)c3cc(N4CCCC4)ccc3[nH]2)c1	> 100 µM (inactive)
NS(=O)(=O)c1ccc(NNc2c3ccccc3nc3c(C(=O)Nc4ccc(S(=O)(=O)Nc5ncccn5)cc4)cccc23)cc1	> 25 µM (inactive)

---

- Tested on: DU-145
- procedure.details: NCI tumour cell line growth inhibition, 48 h
The source made the active and inactive calls. Cut-off read from the data, not from the text of the source: active = GI50 up to about 1.1 µM and inactive = higher.
Outcome codes: active, inactive

molecule	category.label
O=C1c2ccccc2C(=O)c2c(Nc3cc4c5c(ccc6c7ccc8c9c(cc(Nc%10cccc%11c%10C(=O)c%10ccccc%10C%11=O)c(c3c56)c97)-c3ccccc3C8=O)C(=O)c3ccccc3-4)cccc21	inactive
OCCNCNc1nc(NCNCCO)nc(N(CNCCO)CNCCO)n1	inactive
CC(NNC(=O)c1cc[n+]([BH2-]C#N)cc1)c1cccc(F)c1 (stereo not given)	inactive
CCSC(=O)N1c2ccc(OC)cc2C=CC1C#N (stereo not given)	active
O=C1CS(=O)(=O)C(c2cccc(Oc3ccccc3)c2)N1c1ccccc1 (stereo not given)	inactive
COc1cc(NP(=O)(Oc2ccccc2)Oc2ccccc2)ccc1Nc1c2ccccc2nc2c1[nH]c1ccccc12	active
Cc1ccc(NC(=O)CC(=O)n2nc(C)c(/N=N/c3cccc(C)c3)c2C)cc1	inactive
N#Cc1cnc(-n2[nH]c3c(c2=O)CCCC3)[nH]c1=O	inactive
CCOC(=O)c1nc2ccc(C(F)(F)F)cc2nc1Oc1ccc(F)cc1	inactive
CCc1c(O)cc(=O)oc1-c1ccc(OC)c(OC)c1	inactive

---

- Tested on: RXF 393
- procedure.details: NCI tumour cell line growth inhibition, 48 h
Active and inactive are the calls of the source. No stated cut-off is given here; in the data, active = GI50 up to about 1.1 µM and inactive = higher.
Outcome codes: 1.0 = active, 0.0 = inactive

molecule	category.label
CC(=O)NC1C(OCc2ccccc2)OC(CO)C(O)C1OC(C)C(=O)N[C@@H](C)C(=O)N[C@H](CCC(=O)OCCNc1c2ccccc2nc2cccc([N+](=O)[O-])c12)C(N)=O (some centres undefined)	1.0
O=C1CS(=O)(=O)C(c2cccc(Oc3ccccc3)c2)N1c1ccccc1 (centres undefined)	0.0
O=C1c2ccccc2C(=O)c2c(Nc3cc4c5c(ccc6c7ccc8c9c(cc(Nc%10cccc%11c%10C(=O)c%10ccccc%10C%11=O)c(c3c56)c97)-c3ccccc3C8=O)C(=O)c3ccccc3-4)cccc21	0.0
c1ccc2c3c([nH]c2c1)C1c2[nH]c4ccccc4c2CCN1CC3	0.0
CCOC(=O)C(=[N+]=[N-])C(=O)CSC#N	0.0
CN1CCC/C1=N\C#N	0.0
CC12CCCC(C#N)(C1)OC2=O (centres undefined)	0.0
COC(=O)c1c(-c2ccccc2)cc2c3cc(-c4ccccc4)c(C(=O)OC)n3c3ccccc3n12	0.0
CCOC(=O)/C=C(\C)Sc1cc(O)c2ccccc2c1O	0.0

---

- System: SN12C
- procedure.details: NCI tumour cell line growth inhibition, 48 h
Active and inactive are the calls of the source. No stated cut-off is given here; in the data, active = GI50 up to about 1.1 µM and inactive = higher.
// values below are reported GI50
property.label: GI50

compound	property.label	readout.value
Brc1ccc2c([C@H]3CN[C@@H](c4c[nH]c5cc(Br)ccc45)CN3)c[nH]c2c1	GI50	5.19 µM (inactive)
CC(=O)Oc1ccn2nc(C)c(Cc3c(C)nn4ccc(OC(C)=O)cc34)c2c1	GI50	> 100 µM (inactive)
O=c1n(C2CCCCC2)c(=C(Cl)Cl)c(=C(Cl)Cl)n1C1CCCCC1	GI50	> 100 µM (inactive)
Cc1ccc2c(c1)CN1c3ccc(C)cc3CN2C1c1ccccc1O	GI50	29.9 µM (inactive)
O=C1c2ccccc2C(=O)c2sc(Nc3ccccc3Cl)nc21	GI50	7.5 µM (inactive)
COc1ccc(/C=C2\CCCC(CN(C)C)C2=O)cc1 (stereo unspecified)	GI50	2.56 µM (inactive)

---

- Tested on: A498
- procedure.details: NCI tumour cell line growth inhibition, 48 h
Active and inactive are the calls of the source. No stated cut-off is given here; in the data, active = GI50 up to about 1.1 µM and inactive = higher.
// values below are reported GI50

compound	tgt	GI50
O=C1c2ccccc2S(=O)(=O)c2ccccc21	A498	> 100 µM (inactive)
CCCC1(CC(=O)O)OCCc2c1[nH]c1ccccc21 (stereo unspecified)	A498	> 100 µM (inactive)
CCCCCCCCCCCOC(=S)NC(C)C	A498	19.6 µM (inactive)
COC(=O)C1=C(O)C(C(=O)OC)[C@@]2(O)[C@@H](C(=O)OC)C(c3ccc(OC(=O)/C(=C/c4ccccc4)c4ccccc4)cc3)C[C@@H]1[C@@H]2C(=O)OC (stereo partly specified)	A498	40.8 µM (inactive)
O=C1CC2C(=O)C1C(C(=O)O)C2C(=O)O (stereo unspecified)	A498	> 100 µM (inactive)
CC(C)[Si]1(C(C)C)OCC2OC(N3C(=O)NC(=O)C[C@@H]3C(O)c3ccccc3)CC2O[Si](C(C)C)(C(C)C)O1 (stereo partly specified)	A498	7.21 µM (inactive)

---

- System: MDA-MB-435
- procedure.details: NCI tumour cell line growth inhibition, 48 h
Calls of active or inactive are those of the source. No stated cut-off is given here; in the data, active = GI50 up to about 1.1 µM and inactive = higher.
property.label: GI50

compound	readout.value
Cc1cc(N(CCC#N)CCC#N)ccc1/C=C1\SC(=S)NC1=O	82.2 µM (inactive)
COC(=O)c1c(O)ccc2c1c1c(n2Cc2cc(OC)cc(OC)c2)C(=O)c2ccccc2C1	10.9 µM (inactive)
O=C(O)/C=C/C(=O)N1Cc2cc3ccccc3nc2C1	> 100 µM (inactive)
CCOC(=O)C1=C(O)C2C3CC4C2C(O)=C(C(=O)OCC)C2C1C3C42 (centres undefined)	> 100 µM (inactive)
Cc1ccc([N+](=O)[O-])cc1S(=O)(=O)Nc1ccc(C2=NOC(c3ccccc3)C2)cc1 (centres undefined)	1.5 µM (inactive)
O=C1c2ccccc2-c2nnc(-c3ccc(Cl)cc3)cc21	> 10 µM (inactive)
CC(C)(C)c1ccc2c(c1)OCc1n[nH]c(n1)COc1cc(C(C)(C)C)ccc1OCCOCCO2	3.21 µM (inactive)
Cn1c2ccccc2n2c(=O)c3cc([N+](=O)[O-])ccc3c(C#N)c12	> 100 µM (inactive)
NS(=O)(=O)c1ccc(NNc2c3ccccc3nc3c(C(=O)Nc4ccc(S(=O)(=O)Nc5ncccn5)cc4)cccc23)cc1	> 25 µM (inactive)

---

- Tested on: TK-10
- procedure.details: NCI tumour cell line growth inhibition, 48 h
Active and inactive are the calls of the source. No stated cut-off is given here; in the data, active = GI50 up to about 1.1 µM and inactive = higher.

compound	GI50
O=C1c2ccc3cc(CCl)cc(O)c3c2C(=O)c2cccc(O)c21	> 10 µM (inactive)
CC(Oc1ccccc1)C(=O)NNC(=O)OC(C)(C)C (stereo unspecified)	> 100 µM (inactive)
COc1ccc(C2Oc3ccc(O)cc3[C@@H]2C)cc1OC (stereo partly specified)	> 100 µM (inactive)
O=C(OCc1ccccc1)C(Cc1ccc(OCc2ccccc2)cn1)NC(=O)C(F)(F)F (stereo unspecified)	> 100 µM (inactive)
Cn1cnc2c1c(=O)n(CCNCCO)c(=O)n2C	> 100 µM (inactive)
O=C(N/N=C/c1cc(Cl)cc(Cl)c1O)c1ccncc1	> 100 µM (inactive)
S=C1SSC2N=CC=CC12 (stereo unspecified)	> 100 µM (inactive)
O=[N+]([O-])c1ccc(-c2ccc(-c3csc(Nc4ccccn4)n3)o2)cc1	26.9 µM (inactive)
O=C(N/N=C/c1ccc(O)cc1)NNCCO	> 100 µM (inactive)
COC(=O)c1ccccc1CC1Cc2ccc3c(c2C1=O)CCC3 (stereo unspecified)	> 100 µM (inactive)
O=S1(=O)OCCCOS(=O)(=O)C1Br	> 100 µM (inactive)
NS(=O)(=O)c1ccc(NNc2c3ccccc3nc3c(C(=O)Nc4ccc(S(=O)(=O)Nc5ncccn5)cc4)cccc23)cc1	> 25 µM (inactive)
COc1cc(NP(=O)(Oc2ccccc2)Oc2ccccc2)ccc1Nc1c2ccccc2nc2c1[nH]c1ccccc12	3.01 µM (inactive)
Cc1ccc2c(c1)CN1c3ccc(C)cc3CN2C1c1ccccc1O	26.2 µM (inactive)
OC/C=C/[C@H](OCc1ccccc1)[C@H](/C=C/CO)OCc1ccccc1	73.1 µM (inactive)
CCOC(=O)/N=C(\N)SCc1ccccc1	> 100 µM (inactive)
Cc1nc2nnc(CCCCCCCCc3nnc4nc(C)[nH]n34)n2[nH]1	> 100 µM (inactive)
C[O+]=C1C=CC(=C2SC(c3ccccc3)(c3ccccc3)c3ccccc32)C=C1.[O-][Cl+3]([O-])([O-])[O-]	23.4 µM (inactive)
C[C@]12CCC(=O)C=C1CC[C@@H]1C2CC[C@]2(C)Nc3[nH]ncc3CC12 (stereo partly specified)	> 100 µM (inactive)
CC(=O)O[C@H]1CC[C@@]2(C)C(=CC[C@@H]3[C@@H]2CC[C@]2(C)c4c(C)n[nH]c4C[C@@H]32)C1	19.2 µM (inactive)
Cn1c2ccccc2n2c(=O)c3cc([N+](=O)[O-])ccc3c(C#N)c12	> 100 µM (inactive)
